From: patent US20230212304A1

Measured kon accompanies every entry in the list below.
# target_or_system: T1, recombinant human CTLA4-his protein (Acro biosystems, Cat#CT4-H5229) (human, UniProt P16410 37-162)
# T1 construct: bought recombinant protein; not shown: his tag
# T1 sequence (looked up): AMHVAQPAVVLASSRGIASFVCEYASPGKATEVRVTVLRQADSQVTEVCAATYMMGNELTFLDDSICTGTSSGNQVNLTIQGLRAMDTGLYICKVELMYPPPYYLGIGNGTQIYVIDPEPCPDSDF
# test_protocol: BLI, Octet RED96; antibody on AHC sensor, CTLA4-his as analyte
A number alone suffices; assume M⁻¹ s⁻¹.

See these solved cases before continuing.
chimeric C1D1 anti-CTLA4 antibody (antibody, human IgG4 S228P, kappa, V domains shown, mouse variable domains on human IgG4/kappa, made in 293F cells) VH: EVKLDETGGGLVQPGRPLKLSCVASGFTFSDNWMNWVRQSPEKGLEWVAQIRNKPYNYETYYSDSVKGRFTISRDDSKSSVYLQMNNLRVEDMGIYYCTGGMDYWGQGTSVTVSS VL: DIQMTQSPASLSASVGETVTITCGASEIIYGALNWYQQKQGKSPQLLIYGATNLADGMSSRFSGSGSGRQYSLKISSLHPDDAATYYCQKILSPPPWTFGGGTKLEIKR; 884000
chimeric D1B6 anti-CTLA4 antibody (antibody, human IgG4 S228P, kappa, V domains shown, mouse variable domains on human IgG4/kappa, made in 293F cells) VH: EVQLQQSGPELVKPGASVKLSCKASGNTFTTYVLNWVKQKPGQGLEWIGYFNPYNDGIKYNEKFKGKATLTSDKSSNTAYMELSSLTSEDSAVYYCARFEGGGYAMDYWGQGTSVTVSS VL: DIVLTQSPASLAVSLGQRATISCRASQSVGTSRNTYIHWYQQKLGQPPKLLIKYASDLESGVPARFSGSGSGTDFTLNIHPVEEEDTATYYCQHSWEIPYTFGGGTKLEIKR; 5140
chimeric C1G4 anti-CTLA4 antibody (antibody, human IgG4 S228P, kappa, V domains shown, mouse variable domains on human IgG4/kappa, made in 293F cells) VH: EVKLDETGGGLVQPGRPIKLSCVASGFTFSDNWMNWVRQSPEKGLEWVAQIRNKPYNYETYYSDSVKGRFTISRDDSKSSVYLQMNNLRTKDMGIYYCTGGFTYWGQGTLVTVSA VL: DIQMTQSPPSLSASVGETVTITCGASENIYGGLNWYQRKQGKSPQLLIYGATNLADGMSSRFSGSGSGRQYSLKISRLHPDDVATYYCQNVLNTPYTFGGGTKLEIKR; 676000

Read the next record carefully.
Please give the measured kon for this binder: chimeric D1D5 anti-CTLA4 antibody (antibody, human IgG4 S228P, kappa, V domains shown, mouse variable domains on human IgG4/kappa, made in 293F cells) VH: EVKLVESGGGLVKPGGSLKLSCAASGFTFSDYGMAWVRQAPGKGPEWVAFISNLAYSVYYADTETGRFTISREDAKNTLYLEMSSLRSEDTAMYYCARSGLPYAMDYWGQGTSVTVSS VL: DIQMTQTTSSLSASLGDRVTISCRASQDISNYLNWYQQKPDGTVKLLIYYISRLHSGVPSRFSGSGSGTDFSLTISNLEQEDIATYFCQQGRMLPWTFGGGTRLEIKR
312000
